Source of measurements: patent US20130296455A1

test-details: Evaluation of heat-resistance by TG-DTA
Type: physicochemical
measurement-kind: temperatures at 10% weight loss (°C)

| smiles-string | readout-units | temperatures at 10% weight loss |
| --- | --- | --- |
| CCOC(=O)/C(C#N)=C/c1ccc(N(c2ccc(/C=C(\C#N)C(=O)OCC)cc2)c2ccc(/C=C(\C#N)C(=O)OCC)cc2)cc1 | °C | 370 |
| CCOC(=O)/C(C#N)=C/c1ccc(N(c2ccccc2)c2ccc(/C=C(\C#N)C(=O)OCC)cc2)cc1 | °C | 355 |
| CCOC(=O)/C(C#N)=C/c1ccc(N(CC)CCCCCCN(CC)c2ccc(/C=C(\C#N)C(=O)OCC)cc2)cc1 | °C | 346 |

###

test-details: Evaluation of absorption wavelength property in CHCl3 solution
Format: physicochemical
condition-notes: maximum absorption wavelength in CHCl3 solution
measurement-kind: λmax (nm)

| molecule | reported-value |
| --- | --- |
| CCOCCOC(=O)/C(C#N)=C/c1ccc(N(CC)CC)cc1 [Comparative Compound No. 2, reference compound] | 432 |
| CCOC(=O)/C(C#N)=C/c1ccc(N2CCN(c3ccc(/C=C(\C#N)C(=O)OCC)cc3)CC2)cc1 [Compound No. 5] | 423 |
| CCOC(=O)/C(C#N)=C/c1ccc(N(CC)CCCCCCN(CC)c2ccc(/C=C(\C#N)C(=O)OCC)cc2)cc1 [Compound No. 46] | 430 |
| CCOC(=O)/C(C#N)=C/c1ccc(N(CC)CC)cc1 [Comparative Compound No. 1, reference compound] | 430 |
| CCOC(=O)/C(C#N)=C/c1ccc(N(c2ccccc2)c2ccc(/C=C(\C#N)C(=O)OCC)cc2)cc1 [Compound No. 1] | 460 |
| CCOC(=O)/C(C#N)=C/c1ccc(N(c2ccc(/C=C(\C#N)C(=O)OCC)cc2)c2ccc(/C=C(\C#N)C(=O)OCC)cc2)cc1 [Compound No. 2] | 452 |

###

test-details: Solubility in PGMEA
Assay type: physicochemical
condition-notes: PGMEA added dropwise to 0.1 g of compound; concentration when completely dissolved
Protocol: Bis(4-formylphenyl)phenylamine (0.90 g, 3 mmol), ethyl cyanoacetate (0.75 g, 6.6 mmol) and ethanol (1.26 g) were added to a reaction container and heated to 50° C. under stirring. […] Furthermore, the solubility and absorption wavelength properties (absorption wavelength λmax and absorption coefficient ∈) of compound No. 1 were measured. […] Furthermore, the absorption wavelength properties were measured in a CHCl3 solution.
measurement-kind: solubility (wt %)

Some compounds with recorded solubility:
| smiles-string | measurement-kind | reported-value |
| --- | --- | --- |
| CCOC(=O)/C(C#N)=C/c1ccc(N(CC)CCCCCCN(CC)c2ccc(/C=C(\C#N)C(=O)OCC)cc2)cc1 | solubility | 0.5 |
| CCOC(=O)/C(C#N)=C/c1ccc(N(c2ccc(/C=C(\C#N)C(=O)OCC)cc2)c2ccc(/C=C(\C#N)C(=O)OCC)cc2)cc1 | solubility | 3.5 |

(a) CCOC(=O)/C(C#N)=C/c1ccc(N(c2ccccc2)c2ccc(/C=C(\C#N)C(=O)OCC)cc2)cc1
(b) CCOC(=O)/C(C#N)=C/c1ccc(N2CCN(c3ccc(/C=C(\C#N)C(=O)OCC)cc3)CC2)cc1
q: Compare a and b and name the one whose reported solubility is smaller. Selection: enter the item's label.
a: b
(b: 0.1 wt %, a: 4.6 wt %)

###

test-details: Evaluation of heat-resistance by TG-DTA
Format: physicochemical
measurement-kind: temperatures at 10% weight loss (°C)

| compound | readout-units | temperatures at 10% weight loss |
| --- | --- | --- |
| CCOC(=O)/C(C#N)=C/c1ccc(N(CC)CC)cc1 [Comparative Compound No. 1, reference compound] | °C | 259 |
| CCOC(=O)/C(C#N)=C/c1ccc(N2CCN(c3ccc(/C=C(\C#N)C(=O)OCC)cc3)CC2)cc1 | °C | 345 |
| CCOCCOC(=O)/C(C#N)=C/c1ccc(N(CC)CC)cc1 [Comparative Compound No. 2, reference compound] | °C | 252 |

###

test-details: Evaluation of heat-resistance by calcination of coating of colored alkali-developable photosensitive composition
Assay type: physicochemical
condition-notes: absorbance of coating at λmax after calcination 230° C.×30 min; before calcination (after exposure to light) = 100
Protocol: No. 3 obtained above, and comparative colored alkali-developable photosensitive composition No. 1 were each applied to a glass substrate under conditions of 410 rpm×7 sec, and dried on a hot plate (90° C., 90 sec). The obtained coating was exposed to light by a ultrahigh pressure mercury lamp (150 mJ/cm^2). The coating after the exposure to light was calcined under conditions of 230° C.×30 min. […]
measurement-kind: relative intensity 230° C., 30 min

| molecule | relative intensity 230° C., 30 min |
| --- | --- |
| CCOC(=O)/C(C#N)=C/c1ccc(N(CC)CCCCCCN(CC)c2ccc(/C=C(\C#N)C(=O)OCC)cc2)cc1 [Compound No. 46] | 99.9 |
| CCOC(=O)/C(C#N)=C/c1ccc(N(c2ccccc2)c2ccc(/C=C(\C#N)C(=O)OCC)cc2)cc1 [Compound No. 1] | 94.9 |

(A) CCOC(=O)/C(C#N)=C/c1ccc(N(c2ccc(/C=C(\C#N)C(=O)OCC)cc2)c2ccc(/C=C(\C#N)C(=O)OCC)cc2)cc1 [Compound No. 2]
(B) CCOC(=O)/C(C#N)=C/c1ccc(N(CC)CC)cc1 [Comparative Compound No. 1, reference compound]
q: Consider A and B . Which of these has its relative intensity 230° C., 30 min at a higher number? Bench note: the answer is the label of the chosen record.
a: A
(A: 98.5, B: 12.5)
